biological target: Bcl-2 protein (Recombinant Human Bcl-2 Protein) (Homo sapiens); construct: purchased Novus NBP2-34889; assay: Binding evaluation of mixture library compounds to Bcl-2 using AS-MS (affinity selection mass spectrometry); conditions: n = 1
Sequence (P10415 whole entry): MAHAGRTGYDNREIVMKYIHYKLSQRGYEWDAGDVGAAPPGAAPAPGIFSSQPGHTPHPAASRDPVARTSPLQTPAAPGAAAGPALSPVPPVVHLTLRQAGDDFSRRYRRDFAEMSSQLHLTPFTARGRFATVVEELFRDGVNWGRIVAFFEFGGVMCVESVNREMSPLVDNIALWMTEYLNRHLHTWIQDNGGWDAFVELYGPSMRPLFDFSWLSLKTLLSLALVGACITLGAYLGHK
parameter: ASMS ratio (%)
Please respond with the number in % and leave the unit unwritten.

A selection of reference data follows.
compound	target	readout.number
CCOc1cncc(-c2ccc(CN3CCN(c4ccc(C(=O)NS(=O)(=O)CCC(F)(F)F)cc4)CC3)c3ccccc23)c1 [B2N066-01]	Bcl-2 protein (Recombinant Human Bcl-2 Protein) (Homo sapiens)	0.0
CCOc1cccc(-c2ccccc2CCC(=O)N2CCN(c3ccc(C(=O)NS(=O)(=O)CCC(F)(F)F)cc3)CC2)c1 [B2N033-01]	Bcl-2 protein (Recombinant Human Bcl-2 Protein) (Homo sapiens)	0.0
CCOc1cccc(C#Cc2ccccc2CN2CCN(c3ccc(C(=O)NS(=O)(=O)CCC(F)(F)F)cc3)CC2)c1 [B2N069-01]	Bcl-2 protein (Recombinant Human Bcl-2 Protein) (Homo sapiens)	−1.8
CCOc1cccc(-c2ccc(CN3CCN(c4ccc(C(=O)NS(=O)(=O)C(C)(C)C)cc4)CC3)cc2F)c1 [B2L051-01]	Bcl-2 protein (Recombinant Human Bcl-2 Protein) (Homo sapiens)	0.0
CCOc1cccc(-c2csc(C(=O)N3CCN(c4ccc(C(=O)NS(=O)(=O)C(C)(C)C)nn4)CC3)c2)c1 [B2L001-01]	Bcl-2 protein (Recombinant Human Bcl-2 Protein) (Homo sapiens)	−67.5
CCOc1cncc(-c2cc(CN3CCN(c4ccc(C(=O)NS(=O)(=O)c5ccc(NCCSc6ccccc6)c(C(F)(F)F)c5)cc4)CC3)cc(OC(C)C)c2)c1 [B2R058-01]	Bcl-2 protein (Recombinant Human Bcl-2 Protein) (Homo sapiens)	13.0
CCOc1cncc(-c2ccc(CN3CCN(c4ccc(C(=O)NS(=O)(=O)c5ccc(NCCSc6ccccc6)c(C(F)(F)F)c5)cc4)CC3)c(OC)c2)c1 [B2R054-01]	Bcl-2 protein (Recombinant Human Bcl-2 Protein) (Homo sapiens)	3.3
CCOc1cccc(-c2cc(CN3CCN(c4ccc(C(=O)NS(=O)(=O)CCC(F)(F)F)cc4)CC3)cc(OC(C)C)c2)c1 [B2N057-01]	Bcl-2 protein (Recombinant Human Bcl-2 Protein) (Homo sapiens)	0.0
CCOc1cccc(-c2cc(CN3CCN(c4ccc(C(=O)NS(=O)(=O)C(C)(C)C)nn4)CC3)cc(OC(F)(F)F)c2)c1 [B2L089-01]	Bcl-2 protein (Recombinant Human Bcl-2 Protein) (Homo sapiens)	0.0
CCOc1cncc(-c2ccc(CN3CCN(c4ccc(C(=O)NS(C)(=O)=O)nn4)CC3)c3ccccc23)c1 [B2I092-01]	Bcl-2 protein (Recombinant Human Bcl-2 Protein) (Homo sapiens)	2.6

Task item: Need ASMS ratio (%), item CCOc1cncc(-c2cc(OC)c(CN3CCN(c4ccc(C(=O)NS(=O)(=O)c5ccc(NCCSc6ccccc6)c(C(F)(F)F)c5)nn4)CC3)c(OC)c2)c1 [B2R086-01]
Reply: 0.0

Task item: Need ASMS ratio (%), item CCOc1cncc(-c2ccc(CN3CCN(c4ccc(C(=O)NS(=O)(=O)c5ccc(NCCSc6ccccc6)c(C(F)(F)F)c5)nn4)CC3)cc2C)c1 [B2R074-01]
Reply: 22.4

Task item: Need ASMS ratio (%), item CCOc1cncc(C#Cc2cncc(C(=O)N3CCN(c4ccc(C(=O)NS(=O)(=O)C(C)(C)C)nn4)CC3)c2)c1 [B2L010-01]
Reply: 0.0
